Values were extracted from paper PMC11079024.

- EXPERIMENTAL TARGET: C. elegans (N2) complex I (NADH:ubiquinone oxidoreductase) (Caenorhabditis elegans, UniProt P24887+Q93873+Q94360)
- Sequence (Q94360 17-199): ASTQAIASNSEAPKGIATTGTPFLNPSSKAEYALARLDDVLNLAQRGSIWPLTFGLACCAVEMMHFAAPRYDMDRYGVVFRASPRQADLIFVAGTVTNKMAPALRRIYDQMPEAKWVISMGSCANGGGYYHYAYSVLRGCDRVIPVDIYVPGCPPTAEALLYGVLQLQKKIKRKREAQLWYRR
- Sequence (P24887 whole entry): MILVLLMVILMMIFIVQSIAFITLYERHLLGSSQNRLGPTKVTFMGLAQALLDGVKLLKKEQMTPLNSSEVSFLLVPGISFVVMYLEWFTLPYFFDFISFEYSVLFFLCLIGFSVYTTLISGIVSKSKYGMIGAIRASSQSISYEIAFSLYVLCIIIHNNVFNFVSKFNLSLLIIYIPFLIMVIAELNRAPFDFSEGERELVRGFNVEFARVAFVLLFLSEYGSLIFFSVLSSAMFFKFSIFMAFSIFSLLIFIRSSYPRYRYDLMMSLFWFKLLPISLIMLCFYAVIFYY
- Sequence (Q93873 31-482): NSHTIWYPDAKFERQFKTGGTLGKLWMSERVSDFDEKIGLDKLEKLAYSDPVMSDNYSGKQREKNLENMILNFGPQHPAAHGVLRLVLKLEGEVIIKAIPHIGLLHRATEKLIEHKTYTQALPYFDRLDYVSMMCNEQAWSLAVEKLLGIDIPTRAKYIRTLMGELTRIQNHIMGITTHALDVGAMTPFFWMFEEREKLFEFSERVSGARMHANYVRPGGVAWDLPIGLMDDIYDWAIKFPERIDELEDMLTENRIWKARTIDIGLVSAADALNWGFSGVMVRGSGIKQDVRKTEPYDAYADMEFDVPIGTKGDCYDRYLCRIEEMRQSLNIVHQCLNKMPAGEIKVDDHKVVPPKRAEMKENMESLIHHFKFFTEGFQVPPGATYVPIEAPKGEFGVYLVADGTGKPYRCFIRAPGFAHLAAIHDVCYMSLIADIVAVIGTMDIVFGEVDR
- TEST NAME: biochemical
- Format: biochemical
- CONDITION CONTEXT: Dose 0.025 µM; read-out: C. elegans mitochondrial complex I activity
MEASURE: activity at 0.025 µM (%)
Note: unit % is implicit; provide only the numeric part.

Prompt: Recorded activity at 0.025 µM for Cc1ccc(SCCCCn2cnc3ccccc32)cc1 [Compound 7925333] , please?
Response: 93.7

Prompt: Look up activity at 0.025 µM for this compound: CCc1cc(OCCn2cnc3ccccc32)ccc1Cl [Compound 7925288]
Response: 96.9

Prompt: I am curious: what activity at 0.025 µM value has been reported for Cc1ccccc1OCCCn1c(C)nc2ccccc21 [Compound 7916923] ?
Response: 94.3

Prompt: # input compound: CCCn1c(COc2ccc(C)cc2)nc2ccccc21 [Compound 6944471] ; wanted: its activity at 0.025 µM
Response: 106

Prompt: Fill in: activity at 0.025 µM of Cc1ccccc1OCCCCn1cnc2ccccc21 [Compound 7732524] is ___
Response: 94.3

Prompt: Requested read-out: activity at 0.025 µM. Entry: Clc1ccc(Cn2cnc3ccccc32)cc1Cl [Compound 5571325]
Response: 92.1

Prompt: For the compound shown here, Cc1ccc(OCCn2cnc3ccccc32)c(C)c1 [Compound 7706808] , give the reported activity at 0.025 µM.
Response: 105

Prompt: Data request, read-out activity at 0.025 µM, for Cc1ccc(C(C)C)c(OCC(O)Cn2cnc3ccccc32)c1 (stereo not drawn) [Compound 6093301]
Response: 90.6

Prompt: What value of activity at 0.025 µM has been recorded for this entry: Clc1ccc(OCCn2cnc3ccccc32)c(Cl)c1 [Compound 7221649]
Response: 101

Prompt: activity at 0.025 µM for Cc1nc2ccccc2n1CCOc1ccccc1 [Compound 5550112] ?
Response: 83.3

Prompt: Form field: reported activity at 0.025 µM of CC(C)Oc1cccc(OCCn2cnc3ccccc32)c1 [Compound 7926496]
Response: 81.7

Prompt: Any idea what activity at 0.025 µM was measured for Nc1nc2ccccc2n1CCOc1ccc(Br)cc1 [Compound 5842535] ?
Response: 81.7

###

Can you tell me Log IC50 B. taurus complex I for the items I'm about to list?
- EXPERIMENTAL TARGET: B. taurus (heart) complex I (Bos taurus, UniProt P03887+P17694+P42026)
- Sequence (P03887 whole entry): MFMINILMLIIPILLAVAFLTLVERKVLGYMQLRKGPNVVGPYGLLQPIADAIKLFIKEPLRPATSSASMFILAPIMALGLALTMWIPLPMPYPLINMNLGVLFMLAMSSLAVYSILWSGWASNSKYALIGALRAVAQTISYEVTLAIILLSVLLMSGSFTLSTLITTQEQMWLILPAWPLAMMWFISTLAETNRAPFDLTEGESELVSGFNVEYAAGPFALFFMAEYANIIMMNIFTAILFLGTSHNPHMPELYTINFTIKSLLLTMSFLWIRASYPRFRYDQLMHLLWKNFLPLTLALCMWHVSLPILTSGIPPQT
- Sequence (P17694 34-463): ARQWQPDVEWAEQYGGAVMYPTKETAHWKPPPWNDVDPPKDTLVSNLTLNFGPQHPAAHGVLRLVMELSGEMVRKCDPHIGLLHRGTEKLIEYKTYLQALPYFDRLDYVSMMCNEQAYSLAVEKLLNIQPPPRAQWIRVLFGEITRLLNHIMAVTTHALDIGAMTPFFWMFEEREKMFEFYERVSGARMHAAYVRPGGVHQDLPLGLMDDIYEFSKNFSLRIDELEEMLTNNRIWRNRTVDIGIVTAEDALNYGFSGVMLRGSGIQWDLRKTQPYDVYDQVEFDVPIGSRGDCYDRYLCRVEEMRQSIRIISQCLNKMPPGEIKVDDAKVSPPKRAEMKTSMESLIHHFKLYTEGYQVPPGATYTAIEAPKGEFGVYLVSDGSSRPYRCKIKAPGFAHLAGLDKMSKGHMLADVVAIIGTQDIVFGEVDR
- Sequence (P42026 38-216): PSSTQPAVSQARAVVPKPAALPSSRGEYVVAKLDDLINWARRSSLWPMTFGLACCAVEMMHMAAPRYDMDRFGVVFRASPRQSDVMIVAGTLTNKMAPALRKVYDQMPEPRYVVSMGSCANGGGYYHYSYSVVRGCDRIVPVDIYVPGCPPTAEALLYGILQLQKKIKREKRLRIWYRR
- TEST NAME: biochemical
- Assay type: biochemical
- CONDITION CONTEXT: log10 of IC50 in µM; B. taurus mitochondria
- Procedure: Six 8–10-week-old C57Bl/6 female mice (Charles River) were freshly dissected, and their livers and hearts collected into separate 1.5 mL microcentrifuge tubes. Organs were flash-frozen in liquid nitrogen and stored at −80 °C prior to use. […] The enzymatic activities of individual ETC complexes (I-IV) were assessed spectrophotometrically in isolated mitochondria using a Varioskan LUX Multimode plate reader (ThermoFisher Scientific). […]
Please reply with the bare figure in µM and do not write the unit itself.

Prompt: What value of Log IC50 B. taurus complex I has been recorded for this entry: Cc1nc2ccccc2n1Cc1ccc(Br)cc1 [Compound 5567167]
Response: -0.68

Prompt: // query Log IC50 B. taurus complex I value for entry Cc1nc2ccccc2n1CCOc1ccccc1Cl [Compound 5561642]
Response: 0.91

Prompt: Which Log IC50 B. taurus complex I reading was recorded for the compound Brc1ccccc1OCCCCn1cnc2ccccc21 [Compound 7924576] ?
Response: 0.0569

Prompt: # lookup: Log IC50 B. taurus complex I of Cn1c(Cc2ccc(Cl)cc2)nc2ccccc21 [Compound 9005666]
Response: 1.52

Prompt: Reported Log IC50 B. taurus complex I, compound Clc1ccc(Cn2cnc3ccccc32)c(Cl)c1 [Compound 6750659] : ____
Response: 0.41

Prompt: Which value of Log IC50 B. taurus complex I has been reported for Cc1cccc(OCCn2c(C)nc3ccccc32)c1 [Compound 6285199] in the records?
Response: 0.70

Prompt: Looking for the measured Log IC50 B. taurus complex I of Cc1ccc(Cn2c(C)nc3ccccc32)cc1 [Compound 5651984] , can you help?
Response: -0.00436

Prompt: Entry Clc1ccc(SCCCCn2cnc3ccccc32)cc1 [Compound 7925515] has what Log IC50 B. taurus complex I?
Response: 0.90

Prompt: Which value of Log IC50 B. taurus complex I has been reported for Cc1nc2ccccc2n1Cc1ccc(C(C)(C)C)cc1 [Compound 5521938] in the records?
Response: 0.07
